Please respond with reported pIC50 for every item in the list.
Test system: NB1
assay_protocol: Cytotoxicity against human NB-1 cells after 3 days by MTT assay
Format: functional, cell-based
condition: NB1, 72 h
One number for each entry, as −log10 of the molar value.

{"columns": ["structure_as_smiles", "measurement_target", "observed_result"],
 "data": [
  ["N#Cc1c(O)nc(SCc2nc3ccccc3[nH]2)nc1-c1ccccc1", "NB1", 8.18],
  ["N#Cc1c(Cl)nc(SCc2nc3ccccc3[nH]2)nc1-c1ccccc1", "NB1", 8.54]
]}

Could I get pIC50 for every one of these entries?
1. N#Cc1c(NC(N)=S)nc(SCc2nc3ccccc3[nH]2)nc1-c1ccccc1
2. Cc1ccc(S(=O)(=O)N2CCN(c3nc(SCc4nc5ccccc5[nH]4)nc(-c4ccccc4)c3C#N)CC2)cc1
3. N#Cc1c(NN)nc(SCc2nc3ccccc3[nH]2)nc1-c1ccccc1
4. CCNc1nc(SCc2nc3ccccc3[nH]2)nc(-c2ccccc2)c1C#N
5. CN1CCN(c2nc(SCc3nc4ccccc4[nH]3)nc(-c3ccccc3)c2C#N)CC1

7.92
8.17
8.27
8.58
8.62

Could I get pIC50 for every one of these entries?
1. N#Cc1c(-c2ccccc2)nc(SCc2nc3ccccc3[nH]2)nc1N1CCN(S(=O)(=O)c2ccccc2)CC1
2. N#Cc1c(-c2ccccc2)nc(SCc2nc3ccccc3[nH]2)nc1N1CCN(C(=O)c2ccccc2)CC1

8.48
8.13
